- Measured On: TJP1_2, Q07157
- Sequence (Q07157 181-274): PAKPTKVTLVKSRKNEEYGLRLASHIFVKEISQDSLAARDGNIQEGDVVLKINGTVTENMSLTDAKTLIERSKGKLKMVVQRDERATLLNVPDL
- Experiment: holdup assay
- Set-up: key: below the threshold = too weak to quantify, mostly under pKd 3.1 to 4
- Details: plain residues with an end cap or a label only (N-terminal biotin on a linker: ado-ado)
Experimental Readout: pKd

# Binder, Result
data = [
    ("HSGYRLNDYV [CLDN14, O95500]", "below the threshold"),
    ("PPYRHRNTVV [ERBB4, Q15303]", "below the threshold"),
    ("TACCHSETVV [TGFA, P01135]", "below the threshold"),
    ("EVEEFPETSV [TRPV3, Q8NET8]", 3.52),
    ("LGRSTPQSEV [DGKH, Q86XP1]", "below the threshold"),
    ("SNAGNTATKA [NOSTRIN, Q8IVI9]", "below the threshold"),
    ("NHSSSPETTA [TRMT13, Q9NUP7]", "below the threshold"),
    ("HLRARKSEWV [GJD4, Q96KN9]", 4.97),
    ("RHGSCVETSL [TMEM151B, Q8IW70]", "below the threshold"),
    ("YYKRPVQEWV [MMP24, Q9Y5R2]", 4.1),
]

Input: Bench note: what pKd did PRAEAEDSFL [PDGFRB, P09619] show?
Output: 3.58

Input: Bench note: what pKd did TLPRKRMSSI [GPRC6A, Q5T6X5] show?
Output: below the threshold

Input: Bench note: what pKd did FNSYSLTGYV [CLDN2, P57739] show?
Output: below the threshold

Input: Bench note: what pKd did LRSPRTPSEV [OR10G3, Q8NGC4] show?
Output: 3.62

Input: Bench note: what pKd did PAPSSGKDYV [CLDN1, O95832] show?
Output: below the threshold

Input: Bench note: what pKd did GNSVLKSTQF [SLC22A12, Q96S37] show?
Output: below the threshold

Input: Bench note: what pKd did RRLPGKETMA [GRIK2, Q13002] show?
Output: below the threshold

Input: Bench note: what pKd did EKKTLIGIKL [GOT1L1, Q8NHS2] show?
Output: below the threshold
